TARGET_SYSTEM: Protein-glutamine gamma-glutamyltransferase (Homo sapiens)
Sequence (P21980 whole entry): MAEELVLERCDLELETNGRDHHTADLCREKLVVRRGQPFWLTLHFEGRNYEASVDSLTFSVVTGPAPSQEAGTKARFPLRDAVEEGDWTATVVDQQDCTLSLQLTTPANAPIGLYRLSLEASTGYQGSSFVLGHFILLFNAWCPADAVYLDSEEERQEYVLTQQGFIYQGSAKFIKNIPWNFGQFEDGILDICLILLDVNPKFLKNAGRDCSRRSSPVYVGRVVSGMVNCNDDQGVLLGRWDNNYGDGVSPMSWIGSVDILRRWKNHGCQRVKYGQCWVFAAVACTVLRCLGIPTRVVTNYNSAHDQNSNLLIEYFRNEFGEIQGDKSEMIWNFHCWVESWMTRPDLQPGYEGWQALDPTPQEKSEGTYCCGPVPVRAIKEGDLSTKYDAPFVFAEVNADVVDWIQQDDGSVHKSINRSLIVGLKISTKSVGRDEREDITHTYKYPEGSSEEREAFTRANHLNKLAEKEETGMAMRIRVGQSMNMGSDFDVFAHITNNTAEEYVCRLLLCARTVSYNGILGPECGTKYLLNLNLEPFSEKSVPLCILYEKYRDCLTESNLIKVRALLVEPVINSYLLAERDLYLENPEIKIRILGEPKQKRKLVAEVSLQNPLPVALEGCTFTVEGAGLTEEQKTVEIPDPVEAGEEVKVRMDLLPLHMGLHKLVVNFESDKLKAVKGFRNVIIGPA
TEST_PROTOCOL: Irreversible inhibition of recombinant human TG2 assessed as inhibition constant using Cbz-Glu(gamma-p-nitrophenyl ester)Gly as a substrate by continuous colorimetric assay
ASSAY_ENDPOINT: Ki
Answer with the number, then the unit.

Value lookup for Ki; key = C=CC(=O)NCC(=O)N1CCN(C(=O)C23CC4CC(CC(C4)C2)C3)CC1
2.82 µM

# query: Ki of entry C=CC(=O)NCC(=O)N1CCC[C@@H](NC(=O)C23CC4CC(CC(C4)C2)C3)C1
115 µM

What value of Ki has been reported for the following compound? C=CC(=O)NCC(=O)N1CCC2(CC1)CCN(C(=O)C13CC4CC(CC(C4)C1)C3)C2
112 µM

###

TEST_PROTOCOL: Apparent permeability across basolateral to apical side in […] cells
Format: ADME, cell-based, Canis lupus familiaris
ASSAY_CONTEXT: dog, MDCK-MDR1
Would you kindly list Papp B→A for each of these compounds?
Provide only the numeric value, understood in ×10⁻⁶ cm/s.

Quick check: Papp B→A of C=CC(=O)N(C)CC(=O)N1CCN(C(=O)C23CC4CC(CC(C4)C2)C3)CC1 ?
39

Look up Papp B→A for this compound: C=CC(=O)NCC(=O)N1CCN(C(=O)C23CC4CC(CC(C4)C2)C3)CC1
34.3
